Tested on: pigweed (Amaranthus retroflexus)
Test: Test C postemergence, visual plant response rating
Assay type: in vivo
Details: Test C, postemergence, 125 g ai/ha
readout kind: Pigweed plant response rating (0 to 100 scale)

{"columns": ["compound string", "measured number"],
 "data": [
  ["C#CCON=C(c1cccc(OCC(F)(F)F)c1)c1c(O)c(C)nn(C)c1=O", 30],
  ["CO/N=C(/c1cc(Cl)cc(Br)c1)c1c(O)c(C)nn(C)c1=O", 80],
  ["CO/N=C(/c1cc(C)cc(Cl)c1)c1c(O)c(C)nn(C)c1=O", 90],
  ["CON=C(c1cc(Cl)cc(F)c1Cl)c1c(O)c(C)nn(C)c1=O", 90],
  ["C#CCO/N=C(\\c1cc(C)cc(Cl)c1)c1c(O)c(C)nn(C)c1=O", 100],
  ["CCO/N=C(\\c1cc(Cl)cc(Cl)c1Cl)c1c(O)c(C)nn(C)c1=O", 90],
  ["Cc1nn(C)c(=O)c(/C(=N/OC(C)C)c2cccc3cc(Cl)ccc23)c1O", 90],
  ["CON=C(c1cc(F)cc(F)c1F)c1c(O)c(C)nn(C)c1=O", 50],
  ["CO/N=C(\\c1ccc(F)c(Cl)c1)c1c(O)c(C)nn(C)c1=O", 40],
  ["CO/N=C(\\c1c(O)c(Cl)nn(C)c1=O)c1ccc(F)c2ccccc12", 40]
]}

Values were extracted from patent US20210045385A1.
